Target: T1, huTfR Apical Domain-Avi-His (human, biotin on the Avi tag (BirA) where captured on streptavidin)
T1 construct: also called huTfR apical Avi-His; hTfR Apical
T1 chain: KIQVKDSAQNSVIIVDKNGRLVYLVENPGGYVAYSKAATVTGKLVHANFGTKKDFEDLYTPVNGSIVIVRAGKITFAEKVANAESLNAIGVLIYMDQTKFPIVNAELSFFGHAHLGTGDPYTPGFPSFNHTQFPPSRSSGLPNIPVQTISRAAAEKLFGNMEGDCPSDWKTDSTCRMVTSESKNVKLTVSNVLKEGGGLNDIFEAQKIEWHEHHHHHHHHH
Assay: ELISA OD450, supernatant
parameter: ratio over irrelevant protein (fold)
Lab book: enter the figure in fold, no units written.

Example binders with recorded ratio over irrelevant protein:
| binder | ratio over irrelevant protein (fold) |
| --- | --- |
| TfR8 (mouse hybridoma antibody) (antibody, V domains shown, mouse IgG in hybridoma supernatant) VH: QVQLQQSGAELVRPGTSVKVSCKASGYAFTNYLIEWVKQRPGQGLEWIGVINPGSGGTNYNEKFKGKATLTADKSSSTAYMQLSSLTSDDSAVYFCARRSPYFDYWGQGTTLTVSS VL: SIVMTQTPKFLLVSAGDRVTITCKASQSVSNDVAWYQQKPGQSPKLLIYYASNRYTGVPDRFTGSGYGTDFTFTISTVQAEDLAVYFCHQDYISPTFGGGTKLEIK | 37 |
| TfR3 (mouse hybridoma antibody) (antibody, V domains shown, mouse IgG in hybridoma supernatant) VH: QVQLRQSGPELVKPGASVRISCKASGYTFTSFYIHWVKQRPGQGLEWIGWIYPGDVNTHYSDKFKGKATLTADKSSSTAYMQLSSLTSEDSAVYFCAREGYGYFAYWGQGTLVTVSA VL: DIVMTQSPSSLTVTAGEKVTMSCKSSQSLLNSGNQKNYLTWYQQKPGQPPKLLIYWASTRESGVPDRFTGVGSGTDFTLTISSVQAEDLAVYYCQNDYSYPLTFGSGTKLELK | 37 |

Which ratio over irrelevant protein is reported for this binder? TfR26 (mouse hybridoma antibody) (antibody, V domains shown, mouse IgG in hybridoma supernatant) VH: QVQLHQSGPELVKPGASVKMSCKASGYTFTNYYIHWVKQRPGQGLEWIGWIYPGDGVTHYNEKFKGKTTLTADKSSSTAYMLLSSLTSEDSAIYFCARDKDVPGMDYWGQGTSVTVSS VL: DIVMTQSPSSLTVTSGEKVTMSCKSSQSLLNSENQKNYLTWYQQKPGQPPKLLIYWASTRESGVPDRFTGSGSGPDFTLTISSVQAEDLAVYYCQNDYSYPLTFGAGTKLELK
35
